# Test system: L1210 leukemia ip in BDF1 mice, survival T/C
# measurement_protocol: NCI In Vivo Anticancer Drug Screen. Data for tumor model L1210 Leukemia (intraperitoneal) in B6D2F1 (BDF1) mice
# study_conditions: endpoint: mean survival time; dose: 200.0 mg/kg/injection; schedule: Q04DX003 (ip); vehicle: saline with Tween-80; higher = longer survival
Inconclusive results and toxic doses are left out.
property_label: T/C

compound: COc1ccccc1SC(=O)N(C)C
property_label: T/C
result: 96 % of control

compound: OCc1cc(Cl)cc(Cl)c1O
property_label: T/C
result: 98 % of control

compound: CCCC(C)(O)C#CC(C)(O)CCC (centres undefined)
property_label: T/C
result: 95 % of control

compound: O=C1c2ccccc2C(=O)N1CCc1ccccn1
property_label: T/C
result: 101 % of control

compound: CC(C)=CCn1c(=O)c2c(ncn2C)n(C)c1=O
property_label: T/C
result: 98 % of control

compound: CCCCCCC(C)O[Si](C)c1ccc(C)cc1 (centres undefined)
property_label: T/C
result: 97 % of control

compound: CC(=O)c1ccccc1[N+](=O)[O-]
property_label: T/C
result: 96 % of control

compound: CCOC(=O)c1ccc(NC(=S)Nc2ccc(C(=O)OCC)cc2)cc1
property_label: T/C
result: 87 % of control

compound: OC1C=NC(N2CCN(c3ccccc3)CC2)=Cc2ccccc21 (centres undefined)
property_label: T/C
result: 95 % of control

compound: NC(=O)c1ccc[n+](CC(=O)Nc2ccc(Cl)cc2)c1
property_label: T/C
result: 101 % of control

compound: O=C(O)C1=CC2C3C=CC(C(=O)O)(C3)C2C1 (centres undefined)
property_label: T/C
result: 102 % of control

compound: Brc1ccc(Nc2c3ccccc3nc3ccccc23)cc1
property_label: T/C
result: 103 % of control

compound: CCCNC(=O)Oc1cccc(NC(=O)OC)c1
property_label: T/C
result: 97 % of control

compound: Cc1ccc(C(C)C)cc1NC(=O)/C=C/c1ccccc1
property_label: T/C
result: 89 % of control

compound: COC(=O)C(C)NC(=O)Cc1ccccc1 (centres undefined)
property_label: T/C
result: 101 % of control

compound: CCOC(=O)Nc1cc(Cl)c([N+](=O)[O-])c(N)n1
property_label: T/C
result: 116 % of control

compound: COc1ccc(CCNC(=O)C2(C(C)C)OC3(O)C4CCCN4C(=O)C(C(C)C)N3C2=O)cc1OC (centres undefined)
property_label: T/C
result: 111 % of control

compound: CCCCn1c(N)n[nH]c1=S
property_label: T/C
result: 90 % of control

compound: C#CCCC#C
property_label: T/C
result: 104 % of control

compound: O=C(Nc1cccnc1)C1=Cc2ccccc2OC1
property_label: T/C
result: 98 % of control

compound: NCCCN1CCCN=C1C1=NCCCN1CCCN
property_label: T/C
result: 98 % of control

compound: CC(=O)c1ccc(C(=O)NCCCc2c(C)nc(N)[nH]c2=O)cc1
property_label: T/C
result: 90 % of control

compound: CCS(=O)(=O)CCNC(=O)NS(=O)(=O)c1ccc(C)cc1
property_label: T/C
result: 97 % of control

compound: Cc1c(Cl)c(C)c(Cl)c(O)c1Cl
property_label: T/C
result: 96 % of control

compound: CCCCCC(=O)NCC(=O)O
property_label: T/C
result: 97 % of control

compound: O=C1CCC(CC2CCCCC2)CC1
property_label: T/C
result: 95 % of control

compound: O=S1c2ccccc2Sc2ccccc21
property_label: T/C
result: 97 % of control

compound: CN(C)C(=S)Oc1ccccc1[N+](=O)[O-]
property_label: T/C
result: 103 % of control

compound: CC(=O)Nc1ccc(Cc2ccc(NC(C)=O)cc2)cc1
property_label: T/C
result: 93 % of control

compound: N#CC(C#N)C(=O)c1ccccc1
property_label: T/C
result: 95 % of control

compound: Cc1cc([N+](=O)[O-])cc(Br)c1N
property_label: T/C
result: 93 % of control

compound: O=c1[nH]c(-c2ccccc2)c(Br)c(=O)[nH]1
property_label: T/C
result: 107 % of control

compound: CN(C(=O)Sc1ccc([N+](=O)[O-])cc1)c1ccccc1
property_label: T/C
result: 89 % of control

compound: O=C(Nc1cc[n+](Cc2ccc(S(=O)(=O)F)cc2)cc1)c1ccccc1
property_label: T/C
result: 98 % of control

compound: Cc1c(Cl)cccc1NC(=O)N(C)Cc1ccccc1
property_label: T/C
result: 106 % of control

compound: CC/C(=N/O)c1ccc(O)cc1O
property_label: T/C
result: 101 % of control

compound: Cc1ccc(S(=O)(=O)NC(=O)NCCC(C)C)cc1
property_label: T/C
result: 100 % of control

compound: CC(O)(Cc1ccccc1)c1ccccc1 (centres undefined)
property_label: T/C
result: 107 % of control

compound: CCOC(=O)CC(=O)N/N=C(/C)C(=O)OCC
property_label: T/C
result: 105 % of control

compound: O=[N+]([O-])c1ccc(/C=C\c2ccc(Cl)cc2S(=O)(=O)F)c(Cl)c1
property_label: T/C
result: 96 % of control

compound: COC(OC)c1[nH]c(=S)[nH]c(=O)c1C
property_label: T/C
result: 105 % of control

compound: Oc1c(Br)cc(Br)cc1C=Nc1ccc(Cl)cc1.Oc1c(Br)cc(Br)cc1C=Nc1ccc(Cl)cc1.[Co]
property_label: T/C
result: 103 % of control

compound: O=C(O)c1ccc2ccc3cccnc3c2n1
property_label: T/C
result: 113 % of control

compound: COc1cc2c(cc1OC)C1Cc3ccc(OC)c(OC)c3CN1CC2 (centres undefined)
property_label: T/C
result: 94 % of control

compound: OCc1ccc(Cl)cc1Cl
property_label: T/C
result: 105 % of control

compound: CSc1ccc(NC(=O)Oc2ccccn2)cc1
property_label: T/C
result: 88 % of control

compound: CCCCCCCC(=O)c1ccc(O)cc1
property_label: T/C
result: 100 % of control

compound: COc1cc(NC(=O)CC(C)=O)c(OC)cc1Cl
property_label: T/C
result: 102 % of control

compound: C/C=C(/C#N)c1ccccc1
property_label: T/C
result: 96 % of control

compound: CC(=O)CC(=O)N1CCCCCC1
property_label: T/C
result: 95 % of control

compound: Cc1nn2c(=O)[nH]cnc2c1Cl
property_label: T/C
result: 89 % of control

compound: O=[N+]([O-])c1ccc(N/N=C(/CCCCl)c2ccccc2)c([N+](=O)[O-])c1
property_label: T/C
result: 95 % of control

compound: c1ccc(-c2cnc(-c3ccccc3)[nH]2)cc1
property_label: T/C
result: 100 % of control

compound: O/N=C1\CCc2ccccc2C(O)C1c1ccccc1 (centres undefined)
property_label: T/C
result: 102 % of control

This collection of values is drawn from PubChem BioAssay AID248.
